Below, each entry is listed alongside its reported remaining activity at 10 µM.
system.tested: SH2B (SH2B1) (Homo sapiens, UniProt Q9NRF2)
Construct: made in house; host or cells: HEK293 (transient transfection), unpurified extract
assay.info: biochemical
Format: binding
test.parameters: read-out: percent of DMSO vehicle control
Non-standard residues stand in square brackets, D forms with d. Residues, ends and D or L forms follow the SMILES beside them. *: point of attachment. pY = N[C@@H](Cc1ccc(OP(=O)(O)O)cc1)C(=O)O; Caffeoyl = O=C(/C=C/c1ccc(O)c(O)c1)*
Give just the numeric value; % need not be written.

Worked cases, answers included:
1. CC(=O)N[C@@H](Cc1ccc(CP(=O)(O)O)cc1)C(=O)NC1(C(=O)N[C@@H](CC(N)=O)C(=O)NCCCc2c(O)ccc3ccccc23)CCCCC1 [CGP78850]: 125
2. CC(=O)N1CC[C@H]2CC[C@@H](C(=O)N[C@@H](CCC(N)=O)C(=O)NC(c3ccccc3)c3ccccc3)N2C(=O)[C@@H](NC(=O)c2cc3cc(C(F)(F)P(=O)(O)O)ccc3[nH]2)C1 [SI-109]: 149
3. NC(=O)CC[C@H](NC(=O)[C@@H]1CC[C@@H]2CCN(C(=O)CCCCCC#Cc3cccc4c3CN(C3CCC(=O)NC3=O)C4=O)C[C@H](NC(=O)c3cc4cc(C(F)(F)P(=O)(O)O)ccc4[nH]3)C(=O)N21)C(=O)NC(c1ccccc1)c1ccccc1 (stereo partly shown) [SD-36]: 68.4

# ---- query compound ----
Tell me measured remaining activity at 10 µM for CC[C@H](C)[C@H](NC(=O)[C@H](CCC(=O)O)NC(=O)[C@H](CCC(=O)O)NC(=O)[C@H](Cc1ccc(OP(=O)(O)O)cc1)NC(=O)/C=C/c1ccc(O)c(O)c1)C(=O)N[C@@H](CCC(=O)O)C(=O)O [Caffeic acid-pYEEIE] (Caffeoyl-[pY]EEIE-OH) please. 2.3
